Entry source: PubChem BioAssay AID651724

Test system: CtBP / adenovirus E1A interaction (AlphaScreen)
assayMethodText: qHTS Assay for Inhibitors of the CtBP/E1A Interaction
conditionContext: AlphaScreen GST-E1A/His-CtBP binding, 1536-well
In all, about 340,000 compounds went through this assay and about 1,700 (0.5%) were called active. Inconclusive results (about 2%) are left out. Cut-off read from the data, not from the text of the source: active = activity change below about -65%; inconclusive = mostly about -30% to -63%; inactive = weaker than that. For the sample, actives were picked, then their nearest neighbours and some compounds at random.
Your response should consist of one outcome taken from YES = active, NO = inactive

Example cases with answers are listed next.
compound: Cc1ccc(C(=O)Nc2ccc3c(c2)OCO3)cc1S(=O)(=O)N1CCCCC1
group: YES
--
compound: CCc1nc2c(OCc3ccc(Cl)cc3Cl)cccn2c1N(C)C(=O)C(C)C
group: NO

Exam item: Could you please tell me the result logged for `CCOC(=O)N1CCN(C(=O)C[C@@H]2C[C@@]3(C(=O)OC)CCCCC=C3N(CCC3=CCCCC3)C2=O)CC1` in this assay?
Marked response: NO
